B1: KIAA1614 peptide 568-583 (uncharacterized protein KIAA1614), 16-mer library wild type / USP8 rhodanese domain (ubiquitin carboxyl-terminal hydrolase 8, residues 174-317) (parent)
chain 1: GMERVLGGLSSPLRLL
chain 2: KCETKEKGAITAKELYTMMTDKNISLIIMDARRMQDYQDSCILHSLSVPEEAISPGVTASWIEAHLPDDSKDTWKKRGNVEYVVLLDWFSSAKDLQIGTTLRSLKDALFKWESKTVLRNEPLVLEGGYENWLLCYPQYTTNAKV

# Variants of: B1
# protocolDetails: peptide-phage display deep mutational scan (M13, 16-mer library, displayed with a C-terminal GGGSG linker encoded by the 3' flank) selected against the GST-tagged USP8 rhodanese domain, four rounds; NGS counts summed over selection …
# assayContext: with USP8 rhodanese domain (ubiquitin carboxyl-terminal hydrolase 8, residues 174-317), 10 µg GST-bait on MaxiSorp, pre-cleared on GST, 2 h at 4 °C, five washes with 0.05% Tween 20 in PBS, not graded, scale: average over two replicas of the peptide's fractional NGS count

# inputSequence, screen value
data = [
    ("chain 1 GMERVLKGLSSPLRLL [chain 1 G7K]", "1.55e-05"),
    ("chain 1 DMERVLGGLSSPLRLL [chain 1 G1D]", 0.00131),
    ("chain 1 GMERILGGLSSPLRLL [chain 1 V5I]", "9.76e-05"),
    ("chain 1 GMERVIGGLSSPLRLL [chain 1 L6I]", 0.00654),
    ("chain 1 GMERVLGGLSSPLWLL [chain 1 R14W]", 0.00337),
    ("chain 1 GMERVLGGLSSPLHLL [chain 1 R14H]", 0.000346),
    ("chain 1 GMERVLGGLVSPLRLL [chain 1 S10V]", "6.32e-06"),
    ("chain 1 GTERVLGGLSSPLRLL [chain 1 M2T]", 0.0119),
    ("chain 1 GMERVLTGLSSPLRLL [chain 1 G7T]", 0.0883),
    ("chain 1 GMERYLGGLSSPLRLL [chain 1 V5Y]", 0.00426),
    ("chain 1 GRERVLGGLSSPLRLL [chain 1 M2R]", 0.00145),
    ("chain 1 GMERVFGGLSSPLRLL [chain 1 L6F]", "6.32e-06"),
    ("chain 1 GMERVLGGSSSPLRLL [chain 1 L9S]", 0.000763),
    ("chain 1 GMERVQGGLSSPLRLL [chain 1 L6Q]", "1.9e-05"),
    ("chain 1 GWERVLGGLSSPLRLL [chain 1 M2W]", 0.000604),
    ("chain 1 GMERVLGGLSSPDRLL [chain 1 L13D]", "3.72e-05"),
    ("chain 1 GMERVLGGLASPLRLL [chain 1 S10A]", "6.32e-06"),
    ("chain 1 GGERVLGGLSSPLRLL [chain 1 M2G]", 0.0456),
    ("chain 1 GMERVLNGLSSPLRLL [chain 1 G7N]", 0.00247),
    ("chain 1 GMERVLGGMSSPLRLL [chain 1 L9M]", "9.62e-05"),
    ("chain 1 GMERVLGGLSSPPRLL [chain 1 L13P]", "1.26e-05"),
    ("chain 1 GMERVVGGLSSPLRLL [chain 1 L6V]", "6.32e-06"),
    ("chain 1 GMERVLGGRSSPLRLL [chain 1 L9R]", "1.26e-05"),
    ("chain 1 GMERVLVGLSSPLRLL [chain 1 G7V]", 0.0068),
    ("chain 1 GEERVLGGLSSPLRLL [chain 1 M2E]", 0.0668),
    ("chain 1 GMERVLGGASSPLRLL [chain 1 L9A]", 0.00126),
    ("chain 1 GMERVLGGLSSPLVLL [chain 1 R14V]", 0.0436),
    ("chain 1 GMNRVLGGLSSPLRLL [chain 1 E3N]", 0.000897),
    ("chain 1 GMERVLGGLSSPNRLL [chain 1 L13N]", "6.32e-06"),
    ("chain 1 GMERVLGGLSSPLILL [chain 1 R14I]", 0.00646),
    ("chain 1 GIERVLGGLSSPLRLL [chain 1 M2I]", 0.00918),
    ("chain 1 GMENVLGGLSSPLRLL [chain 1 R4N]", "1.9e-05"),
    ("chain 1 GMERVLGGLSSPKRLL [chain 1 L13K]", "6.32e-06"),
    ("chain 1 GMERVLGGLSSLLRLL [chain 1 P12L]", "6.32e-06"),
    ("chain 1 GMERVLGGLSVPLRLL [chain 1 S11V]", "2.18e-05"),
    ("chain 1 GMERVLGGLSSPLQLL [chain 1 R14Q]", "3.44e-05"),
    ("chain 1 GMERVLGGYSSPLRLL [chain 1 L9Y]", "6.18e-05"),
    ("chain 1 GMARVLGGLSSPLRLL [chain 1 E3A]", 0.000229),
    ("chain 1 GMERVLGGLSDPLRLL [chain 1 S11D]", 0.0401),
    ("chain 1 GMERVLGGQSSPLRLL [chain 1 L9Q]", 0.0169),
    ("chain 1 GMERVLGGLSSPLELL [chain 1 R14E]", "1.9e-05"),
    ("chain 1 RMERVLGGLSSPLRLL [chain 1 G1R]", 0.000532),
    ("chain 1 GMERVLGGLSSPHRLL [chain 1 L13H]", "2.53e-05"),
    ("chain 1 GMERVLGGLSSPLFLL [chain 1 R14F]", 0.00138),
    ("chain 1 GMERALGGLSSPLRLL [chain 1 V5A]", 0.000433),
    ("chain 1 GMERVLGGLSSPERLL [chain 1 L13E]", 0.000467),
]
